# METHOD_DESCRIPTION: clinical
# REPORTED_CONDITIONS: human, in vivo, 100 mg, AUC (M), Patient 8; maintenance analysis Week 4; after ladostigil tartrate 100 mg twice daily
MEASURED_PARAMETER: AUC (ng·h/mL)

- C#CCN[C@@H]1CCc2ccc(OC(=O)N(C)CC)cc21: 500

###

# METHOD_DESCRIPTION: clinical
# REPORTED_CONDITIONS: human, in vivo, 100 mg, Cmax (M), Patient 6; maintenance analysis Week 4; after ladostigil tartrate 100 mg twice daily
MEASURED_PARAMETER: Cmax

• C#CCN[C@@H]1CCc2ccc(OC(=O)N(C)CC)cc21 = 1.5e-06 M

###

# METHOD_DESCRIPTION: clinical
# REPORTED_CONDITIONS: human, in vivo, 100 mg, Cmax (M), Patient 8; maintenance analysis Week 4; after ladostigil tartrate 100 mg twice daily
MEASURED_PARAMETER: Cmax (M)

• C#CCN[C@@H]1CCc2ccc(OC(=O)N(C)CC)cc21 [ladostigil] = 1.7e-06

###

# METHOD_DESCRIPTION: clinical
# REPORTED_CONDITIONS: both, human, in vivo, 100 mg, Cmax (M), mean, mean of patients; maintenance analysis Week 4; after ladostigil tartrate 100 mg twice daily
MEASURED_PARAMETER: Cmax (M)

* C#CCN[C@@H]1CCc2ccc(OC(=O)N(C)CC)cc21 [ladostigil] | 2.02e-06

###

Recorded Cmax for the following compounds
# METHOD_DESCRIPTION: Pharmacokinetic analysis of ladostigil and metabolites in Alzheimer's disease patients
# REPORTED_CONDITIONS: human, in vivo, 100 mg, Cmax (M), Patient 8; maintenance analysis Week 4; after ladostigil tartrate 100 mg twice daily
Structures can show the parent of a compound that is named as a salt.
MEASURED_PARAMETER: Cmax (M)

* CNC(=O)Oc1ccc2c(c1)[C@H](N)CC2 [R-MCAI, hydrochloride] | 2e-07
* C#CCN[C@@H]1CCc2ccc(OC(=O)N(CC)CO)cc21 [R-HCPAI] | 3.3e-06
* C#CCN[C@@H]1CCc2ccc(OC(=O)NC)cc21 [R-MCPAI, hydrochloride] | 7e-07

###

Entries and their Cmax values follow.
# METHOD_DESCRIPTION: Pharmacokinetic analysis of ladostigil and metabolites in Alzheimer's disease patients
# REPORTED_CONDITIONS: human, in vivo, 100 mg, Cmax (T), Patient 4; termination analysis Week 9; after ladostigil tartrate 100 mg twice daily
Where a name gives a salt, the structure may show the parent alone.
MEASURED_PARAMETER: Cmax (nM)

* C#CCN[C@@H]1CCc2ccc(OC(=O)N(CC)CO)cc21 | 3900
* C#CCN[C@@H]1CCc2ccc(OC(=O)NC)cc21 [R-MCPAI, hydrochloride] | 1100
* CNC(=O)Oc1ccc2c(c1)[C@H](N)CC2 [R-MCAI, hydrochloride] | 200

###

# METHOD_DESCRIPTION: Pharmacokinetic analysis of ladostigil and metabolites in Alzheimer's disease patients
# REPORTED_CONDITIONS: human, in vivo, 100 mg, AUC (T), Patient 2; termination analysis Week 9; after ladostigil tartrate 100 mg twice daily
Structures can show the parent of a compound that is named as a salt.
Recorded measurements of AUC(0-t), one per entry
MEASURED_PARAMETER: AUC(0-t) (ng·h/mL)

* CNC(=O)Oc1ccc2c(c1)[C@H](N)CC2 [R-MCAI, hydrochloride] | 733
* C#CCN[C@@H]1CCc2ccc(OC(=O)N(CC)CO)cc21 | 3100
* C#CCN[C@@H]1CCc2ccc(OC(=O)NC)cc21 [R-MCPAI, hydrochloride] | 789

###

Measured Cmax by item
# METHOD_DESCRIPTION: Pharmacokinetic analysis of ladostigil and metabolites in Alzheimer's disease patients
# REPORTED_CONDITIONS: human, in vivo, 100 mg, Cmax (T), Patient 1; termination analysis Week 9; after ladostigil tartrate 100 mg twice daily
Where a name gives a salt, the structure may show the parent alone.
MEASURED_PARAMETER: Cmax (nM)

* C#CCN[C@@H]1CCc2ccc(OC(=O)NC)cc21 [R-MCPAI, hydrochloride] | 1300
* C#CCN[C@@H]1CCc2ccc(OC(=O)N(CC)CO)cc21 | 3200
* CNC(=O)Oc1ccc2c(c1)[C@H](N)CC2 [R-MCAI, hydrochloride] | 200

###

# METHOD_DESCRIPTION: Pharmacokinetic analysis of ladostigil and metabolites in Alzheimer's disease patients
# REPORTED_CONDITIONS: human, in vivo, 100 mg, Cmax (M), Patient 7; maintenance analysis Week 4; after ladostigil tartrate 100 mg twice daily
Structures can show the parent of a compound that is named as a salt.
MEASURED_PARAMETER: Cmax

* CNC(=O)Oc1ccc2c(c1)[C@H](N)CC2 [R-MCAI, hydrochloride] | 4e-07 M
* C#CCN[C@@H]1CCc2ccc(OC(=O)NC)cc21 [R-MCPAI, hydrochloride] | 5e-07 M
* C#CCN[C@@H]1CCc2ccc(OC(=O)N(CC)CO)cc21 [R-HCPAI] | 1.2e-06 M

###

# METHOD_DESCRIPTION: Pharmacokinetic analysis of ladostigil and metabolites in Alzheimer's disease patients
# REPORTED_CONDITIONS: human, in vivo, 100 mg, AUC (M), Patient 3; maintenance analysis Week 4; after ladostigil tartrate 100 mg twice daily
Structures can show the parent of a compound that is named as a salt.
MEASURED_PARAMETER: AUC (ng·h/mL)

* C#CCN[C@@H]1CCc2ccc(OC(=O)NC)cc21 [R-MCPAI, hydrochloride] | 596
* CNC(=O)Oc1ccc2c(c1)[C@H](N)CC2 [R-MCAI, hydrochloride] | 172
* C#CCN[C@@H]1CCc2ccc(OC(=O)N(CC)CO)cc21 | 2290

###

# METHOD_DESCRIPTION: clinical
# REPORTED_CONDITIONS: human, in vivo, 100 mg, AUC (M), Patient 7; maintenance analysis Week 4; after ladostigil tartrate 100 mg twice daily
MEASURED_PARAMETER: AUC (ng·h/mL)

• C#CCN[C@@H]1CCc2ccc(OC(=O)N(C)CC)cc21 = 52

###

# TEST_TARGET: MAO-A (Rattus norvegicus, UniProt P21396)
# Construct: from tissue; host or cells: brain, liver and intestine (duodenum) of dosed rats
# Sequence (P21396 1-526): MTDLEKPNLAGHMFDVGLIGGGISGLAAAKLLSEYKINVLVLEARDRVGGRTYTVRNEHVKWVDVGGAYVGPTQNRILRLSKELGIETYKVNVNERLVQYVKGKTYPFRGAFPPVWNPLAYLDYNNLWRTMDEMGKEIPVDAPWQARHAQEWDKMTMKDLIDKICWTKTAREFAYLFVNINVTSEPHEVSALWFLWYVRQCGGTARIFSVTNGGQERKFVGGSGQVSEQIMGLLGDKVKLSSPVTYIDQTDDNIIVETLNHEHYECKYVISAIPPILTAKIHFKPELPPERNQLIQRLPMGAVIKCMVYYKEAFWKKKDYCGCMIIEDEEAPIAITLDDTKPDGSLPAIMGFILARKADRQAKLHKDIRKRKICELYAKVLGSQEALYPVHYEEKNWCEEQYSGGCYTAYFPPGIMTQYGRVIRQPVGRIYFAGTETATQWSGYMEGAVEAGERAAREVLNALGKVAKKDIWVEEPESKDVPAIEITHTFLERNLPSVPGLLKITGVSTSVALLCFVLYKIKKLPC
# METHOD_DESCRIPTION: Inhibition of MAO activity in vitro (5-HT substrate)
# Format: biochemical
# REPORTED_CONDITIONS: rat brain homogenate; 5-HT 100 uM; 60 minutes pre-incubation at 37° C.; read-out: IC50 for MAO-A inhibition
MEASURED_PARAMETER: IC50 (µM)

- C#CCN[C@@H]1CCc2ccc(OC(=O)N(CC)CO)cc21: 414

###

# METHOD_DESCRIPTION: Pharmacokinetic analysis of ladostigil and metabolites in Alzheimer's disease patients
# REPORTED_CONDITIONS: human, in vivo, 100 mg, AUC (T), Patient 1; termination analysis Week 9; after ladostigil tartrate 100 mg twice daily
Structures can show the parent of a compound that is named as a salt.
MEASURED_PARAMETER: AUC(0-t) (ng·h/mL)

• C#CCN[C@@H]1CCc2ccc(OC(=O)NC)cc21 [R-MCPAI, hydrochloride] = 493
• C#CCN[C@@H]1CCc2ccc(OC(=O)N(CC)CO)cc21 = 1300
• CNC(=O)Oc1ccc2c(c1)[C@H](N)CC2 [R-MCAI, hydrochloride] = 570

###

# METHOD_DESCRIPTION: Pharmacokinetic analysis of ladostigil and metabolites in Alzheimer's disease patients
# REPORTED_CONDITIONS: both, human, in vivo, 100 mg, Cmin (M), mean concentration at pre-dose, mean of patients; maintenance analysis Week 4; 12 hours after the previous dose of ladostigil tartrate
Structures can show the parent of a compound that is named as a salt.
Here the recorded concentration at 12 h is given for each entry.
MEASURED_PARAMETER: concentration at 12 h (M)

• C#CCN[C@@H]1CCc2ccc(OC(=O)N(CC)CO)cc21 [R-HCPAI] = 2.32e-08
• CNC(=O)Oc1ccc2c(c1)[C@H](N)CC2 [R-MCAI, hydrochloride] = 1.53e-07
• C#CCN[C@@H]1CCc2ccc(OC(=O)NC)cc21 [R-MCPAI, hydrochloride] = 1.74e-08
